assay: Cytotoxicity against human HeLa cells assessed as cytotoxicity up to 75 uM after 24 hrs by sulforhodamine B assay
cytotoxicity at 24 h overview

[
  {
    "smiles.record": "Nc1nc(N)nc(NCCCCNc2c3ccccc3nc3c(C(=O)NCCCNCCCNCCCNC(=O)c4cccc5c(NCCCCNc6nc(N)nc(N)n6)c6ccccc6nc45)cccc23)n1",
    "cytotoxicity at 24 h": "< 20%"
  },
  {
    "smiles.record": "CNC(=O)c1ccc2nc3ccccc3c(NCCCCNc3nc(N)nc(N)n3)c2c1",
    "cytotoxicity at 24 h": "< 20%"
  }
]

* * *

system: HeLa; assay: Drug uptake in human HeLa cells expressing (CUG)960 RNA at 35 uM after 36 hrs by confocal microscopic analysis; type: ADME, cell-based

[
  {
    "smiles.record": "CNC(=O)c1ccc2nc3ccccc3c(NCCCCNc3nc(N)nc(N)n3)c2c1",
    "system.name": "HeLa",
    "Drug uptake": "Not Active"
  },
  {
    "smiles.record": "Nc1nc(N)nc(NCCCCNc2c3ccccc3nc3c(C(=O)NCCNCCNCCNC(=O)c4cccc5c(NCCCCNc6nc(N)nc(N)n6)c6ccccc6nc45)cccc23)n1",
    "system.name": "HeLa",
    "Drug uptake": "Not Active"
  },
  {
    "smiles.record": "Nc1nc(N)nc(NCCCCNc2c3ccccc3nc3ccc(C(=O)NCCCNCCCCCCCCNCCCNC(=O)c4ccc5nc6ccccc6c(NCCCCNc6nc(N)nc(N)n6)c5c4)cc23)n1",
    "system.name": "HeLa",
    "Drug uptake": "Active"
  },
  {
    "smiles.record": "Nc1nc(N)nc(NCCCCNc2c3ccccc3nc3c(C(=O)NCCCNCCCNCCCNC(=O)c4cccc5c(NCCCCNc6nc(N)nc(N)n6)c6ccccc6nc45)cccc23)n1",
    "system.name": "HeLa",
    "Drug uptake": "Active"
  }
]

* * *

assay: Binding affinity to 5'-TAMRA-labeled (CUG)6 RNA (unknown origin) by fluorescence titration assay
observed.property: log10 of Kd (log10 of the value in µM)

[
  {
    "smiles.record": "Nc1nc(N)nc(NCCCCNc2c3ccccc3nc3ccc(C(=O)NCCOCCOCCNC(=O)c4ccc5nc6ccccc6c(NCCCCNc6nc(N)nc(N)n6)c5c4)cc23)n1",
    "value.observed": 1.36
  },
  {
    "smiles.record": "Nc1nc(N)nc(NCCCCNc2c3ccccc3nc3c(C(=O)NCCNCCNCCNC(=O)c4cccc5c(NCCCCNc6nc(N)nc(N)n6)c6ccccc6nc45)cccc23)n1",
    "value.observed": 0.68
  },
  {
    "smiles.record": "Nc1nc(N)nc(NCCCCNc2c3ccccc3nc3ccc(C(=O)NCCCOCCOCCOCCCNC(=O)c4ccc5nc6ccccc6c(NCCCCNc6nc(N)nc(N)n6)c5c4)cc23)n1",
    "value.observed": 1.88
  },
  {
    "smiles.record": "CNC(=O)c1ccc2nc3ccccc3c(NCCCCNc3nc(N)nc(N)n3)c2c1",
    "value.observed": 1.82
  },
  {
    "smiles.record": "Nc1nc(N)nc(NCCCCNc2c3ccccc3nc3c(C(=O)NCCCNCCCNCCCNC(=O)c4cccc5c(NCCCCNc6nc(N)nc(N)n6)c6ccccc6nc45)cccc23)n1",
    "value.observed": -0.49
  },
  {
    "smiles.record": "Nc1nc(N)nc(NCCCCNc2c3ccccc3nc3c(C(=O)NCCNCCNCCNCCNC(=O)c4cccc5c(NCCCCNc6nc(N)nc(N)n6)c6ccccc6nc45)cccc23)n1",
    "value.observed": 0.58
  }
]
